Sourced from patent US9896438B2

# TEST SYSTEM: BACE1 (Homo sapiens)
# Construct: endogenous in cells
# Sequence (P56817 46-501): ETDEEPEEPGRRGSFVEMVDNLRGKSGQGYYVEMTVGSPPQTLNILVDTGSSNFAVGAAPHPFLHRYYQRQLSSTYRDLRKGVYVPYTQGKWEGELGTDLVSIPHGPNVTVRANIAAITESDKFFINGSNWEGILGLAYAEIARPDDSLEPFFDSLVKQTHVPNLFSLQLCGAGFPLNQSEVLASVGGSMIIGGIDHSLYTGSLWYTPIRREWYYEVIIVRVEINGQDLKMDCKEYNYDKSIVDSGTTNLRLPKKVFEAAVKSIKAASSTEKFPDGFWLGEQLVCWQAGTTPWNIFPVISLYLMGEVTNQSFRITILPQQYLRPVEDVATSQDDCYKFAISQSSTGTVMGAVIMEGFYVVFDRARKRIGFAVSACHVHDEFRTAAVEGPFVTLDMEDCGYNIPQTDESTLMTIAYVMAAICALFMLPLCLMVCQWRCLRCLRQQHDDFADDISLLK
# PROTOCOL DESCRIPTION: Cellular Aβ-lowering assay (Abeta 40 AlphaLISA in HEK293 APP cells)
# REPORTED CONDITIONS: 18-20 hrs incubation, Aβ 40 in culture supernatants by AlphaLISA
pIC50: −log10 of the molar value.
Decide using pIC50: a value greater than or equal to 8 is 1.0, a smaller one is 0.0.

[
  {
    "COMPOUND": "CN=S1(=O)C[C@@](C)(c2nc(NC(=O)c3ncc(C#N)cc3C)ccc2F)N=C(N)N1CC(F)(F)F (stereo partly drawn) [Example 15]",
    "ASSIGNED LABEL": 1.0
  },
  {
    "COMPOUND": "CN=S1(=O)C[C@@](C)(c2nc(NC(=O)c3ncc(C#N)cc3C)ccc2F)N=C(N)N1CC(F)(F)F (stereo partly drawn) [Example 16]",
    "ASSIGNED LABEL": 1.0
  }
]

Answer whether pIC50 of CC#CCOc1cnc(C(=O)Nc2ccc(F)c([C@]3(C)C[S@@](=O)(=NCC(F)(F)F)N(C)C(N)=N3)n2)cn1 [Example 7] is greater than or equal to 8. 1.0

State whether the measured pIC50 reaches 8, counting equality as reaching it, for CN=S1(=O)CC(C)(c2nc(NC(=O)c3ncc(C#N)cc3C)ccc2F)N=C(N)N1CC(F)(F)F (stereo not drawn) [Example 13] 0.0

Could you tell me if the measured pIC50 of CN1C(N)=N[C@](C)(c2nc(NC(=O)c3ccc(C#N)cn3)ccc2F)C[S@@]1(=O)=NCC(F)(F)F [Example 4] reaches 8 or more? 1.0

Given the entry CN1C(N)=N[C@](C)(c2nc(NC(=O)c3ccc(OCC(F)(F)F)cn3)ccc2F)C[S@@]1(=O)=NCC(F)(F)F [Example 9] , answer whether its pIC50 meets or surpasses 8. 0.0

Decide: is the reported value of pIC50 for CN1C(N)=N[C@](C)(c2nc(NC(=O)c3ccc(OCF)cn3)ccc2F)C[S@@]1(=O)=NCC(F)(F)F [Example 6] equal to or greater than 8? 1.0

Test whether the compound Cc1cc(C#N)cnc1C(=O)Nc1ccc(F)c([C@]2(C)C[S@@](=O)(=NCC(F)(F)F)N(C)C(N)=N2)n1 [Example 3] records pIC50 of 8 or higher. 1.0

Item CN=S1(=O)C[C@@](C)(c2nc(NC(=O)c3ncc(C#N)cc3Cl)ccc2F)N=C(N)N1CC(F)(F)F (stereo partly drawn) [Example 17] with pIC50 of 8 or above? 1.0

Kindly determine if pIC50 recorded for CN=S1(=O)C[C@@](C)(c2nc(NC(=O)c3ncc(F)cc3C)ccc2F)N=C(N)N1CC(F)(F)F (stereo partly drawn) [Example 18] is above or exactly 8. 0.0
